Below: a set of entries, each annotated with reported AC50.
# ASSAY_TARGET: UniProt:Q06710
# Sequence (Q06710 whole entry): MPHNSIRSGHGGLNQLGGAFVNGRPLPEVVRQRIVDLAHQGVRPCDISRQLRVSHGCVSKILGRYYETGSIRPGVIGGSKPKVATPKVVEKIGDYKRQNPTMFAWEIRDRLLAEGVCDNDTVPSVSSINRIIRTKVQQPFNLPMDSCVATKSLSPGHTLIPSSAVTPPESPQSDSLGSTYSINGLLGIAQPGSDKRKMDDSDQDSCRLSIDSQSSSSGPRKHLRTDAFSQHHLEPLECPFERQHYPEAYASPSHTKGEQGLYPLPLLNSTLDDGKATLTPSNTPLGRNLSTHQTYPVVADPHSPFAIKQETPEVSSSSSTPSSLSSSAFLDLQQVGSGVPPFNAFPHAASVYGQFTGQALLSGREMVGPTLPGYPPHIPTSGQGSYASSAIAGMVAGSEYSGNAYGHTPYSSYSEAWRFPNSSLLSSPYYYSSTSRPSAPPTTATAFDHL
# EXPERIMENT_NOTES: PAX8 transcriptional activity inhibition in RMG-I – RMG-I cells, luciferase, cherry-pick, dose response (AID 687027);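 further: luciferase reporter driven by Pax8 target thyroperoxidase promoter measured by SteadyGlo luminescence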
# Type: functional, cell-based
Calls of active or inactive are those of the source. How the calls were made is not given here.

# count of solved cases: 3
>>> df
                                   molecule   reported_result
0  C[C@@H]1CN([C@H](C)CO)C(=O)c2cc(NC(=O)Nc3ccc(C(F)(F)F)cc3)ccc2O[C@@H](C)CCCCO[C@@H]1CN(C)Cc1ccc(Cl)c(Cl)c1     5 µM (active)
1  C[C@@H]1CN([C@H](C)CO)C(=O)c2cc(NC(=O)Nc3ccc(F)cc3)ccc2O[C@@H](C)CCCCO[C@H]1CN(C)Cc1ccc(Cl)c(Cl)c1  9.51 µM (active)
2  COc1ccc(NC(=O)N2CC(=O)N3[C@@H](CO)[C@@H](c4ccc(/C=C/c5ccccc5)cc4)[C@@H]3C2)cc1  5.52 µM (active)

query: API: value(readout=AC50, system=UniProt:Q06710) for record `Cc1cc(C)c2sc(NNC(=O)c3ccc(S(=O)(=O)N4CCc5ccccc5C4)cc3)nc2c1`
result: 2.27 µM (active)

query: Next up: `C[C@@H]1CCCCO[C@@H](CN(C)Cc2ccc(Cl)c(Cl)c2)[C@H](C)CN([C@@H](C)CO)C(=O)c2cc(NS(=O)(=O)c3ccccc3)ccc2O1`
result: 13.4 µM (active)

query: Next up: O=C(NC1CC1)c1ccc2c(c1)C1C3CCC(C3)C1C(c1ccccc1)N2 (configuration not stated)
result: 48.2 µM (active)

query: Next up: `CN(C)CCNC(=O)c1cc2c(s1)-c1ccc(Cl)cc1SC2`
result: 9.29 µM (active)

query: Next up: `C[C@@H]1CCCCO[C@@H](CN(C)Cc2ccc3c(c2)OCO3)[C@H](C)CN([C@@H](C)CO)C(=O)c2cc(NC(=O)Nc3ccc(C(F)(F)F)cc3)ccc2O1`
result: 14.5 µM (active)

query: Next up: `Cc1ccc(S(=O)(=O)Nc2ccc3c(c2)C(=O)N([C@H](C)CO)C[C@@H](C)[C@@H](CN(C)CC2CCCCC2)OCCCC[C@@H](C)O3)cc1`
result: 5.51 µM (active)

query: Next up: `Cc1nc(Nc2nc(CSc3nc4ccccc4[nH]3)cc(=O)[nH]2)nc2ccccc12`
result: 9.16 µM (active)

query: Next up: COc1cc(C2C(C#N)=C(N)Oc3cc4c(cc32)OCO4)cc(OC)c1OC (configuration not stated)
result: 0.553 µM (active)

query: Next up: `O=C(Nc1cccc(F)c1)N1CCCCN2[C@@H](CO)[C@@H](c3ccc(C#Cc4ccccc4)cc3)[C@@H]2C1`
result: 10.1 µM (active)

Where these numbers come from: ChEMBL document CHEMBL1201862
